# credit: paper PMC6222357

- method-notes: Pharmacokinetic study in beagle dogs after oral administration of C. bungeana extract (UHPLC-MS/MS of plasma)
- test-parameters: male, beagle, dog, plasma, po, 0.12 g/kg
So I've got a bunch of compounds here, and I need their half-life values.
// return numeric value only (unit: h, not printed)

query: Field request: half-life | item: COc1ccc2cc3[n+](cc2c1O)CCc1cc2c(cc1-3)OCO2
result: 4.88

query: Lookup COc1cc2c(cc1O)-c1cc3ccc(OC)c(OC)c3c[n+]1CC2
result: 2.87

query: Lookup COc1cc2c(cc1O)CC[n+]1cc3c(OC)c(OC)ccc3cc1-2
result: 6.29
